assay: Physicochemical properties of the drug substance (solubility, pKa); details: methanol; upon addition of a few drops of hydrochloric or acetic acid; read-out: Solubility in methanol (as a salt)

compoundSmiles	solubility
CC(C)Cn1cnc2c(N)nc3ccccc3c21	≥ 100 mg/mL

----------
assay: Physicochemical properties of the drug substance (solubility, pKa); settings: UV spectroscopy and pH-solubility
valueKind: pKa

compound	valueKind	observed
CC(C)Cn1cnc2c(N)nc3ccccc3c21 [imiquimod]	pKa	~7.5
